- Tested on: HS 578T breast
- Procedure details: NCI tumour cell line growth inhibition, 48 h; in the data active = GI50 below about 0.43 µM; inactive = the rest
Labels: TRUE = active, FALSE = inactive

{"columns": ["Compound", "Target system", "Assigned label"],
 "data": [
  ["Nc1nnnc2nc[nH]c12", "HS 578T breast", "FALSE"],
  ["C[C@@H](Nc1nc(Nc2ccc(F)c(Cl)c2)nc2c(C3=CCNCC3)cccc12)C1CC1", "HS 578T breast", "FALSE"],
  ["O=c1c2ccccc2nc(-c2ccccc2Cl)n1-c1nnc(C(F)(F)F)s1", "HS 578T breast", "FALSE"],
  ["CCCCN=C(N)c1ccc(N2CCCN(c3ccc(C(N)=NCCCC)cc3)CC2)cc1", "HS 578T breast", "FALSE"],
  ["O=C1c2cccnc2C(=O)c2c1c(C(=O)NCCn1ccnc1)c1ccccn21", "HS 578T breast", "FALSE"],
  ["c1ccc(-c2n(Cc3ccc4ccccc4c3)cc[n+]2Cc2ccc3ccccc3c2)cc1", "HS 578T breast", "FALSE"],
  ["COc1ccc(C(=O)O[C@H]2[C@H](O[C@H]3[C@@H](O)COC(O[C@H]4C[C@H]5[C@@H]6CC=C7C[C@@H](O)CC[C@]7(C)[C@H]6CC[C@]5(C)[C@H]4[C@H](C)C(=O)CCC(C)C)[C@@H]3OC(C)=O)OC[C@@H](O)[C@@H]2O)c(C)c1 (stereo partly drawn)", "HS 578T breast", "TRUE"],
  ["NC(Cc1c[nH]c2ccc(F)cc12)C(=O)O (stereo not drawn)", "HS 578T breast", "FALSE"]
]}
